Test system: NCI-N87 cells
Test: In vitro cytotoxicity of free payloads (resazurin cell viability, 3 days)
Format: cell-based
Settings: Homo sapiens, NCI-N87, 72 h, read-out: IC50 NCI-N87 (HER2 3+)
Metric: pIC50
# pIC50 is unitless: minus log10 of the molar concentration; print number only

Worked cases, answers included:
1. COc1cccc2c1C(=O)c1c(O)c3c(c(O)c1C2=O)C[C@@](O)(C(=O)CO)C[C@@H]3O[C@H]1C[C@H]2[C@H](O[C@@H]3[C@@H](OCc4ccccc4)OCCN32)[C@H](C)O1 [Compound 6d]
9.47
2. COc1cccc2c1C(=O)c1c(O)c3c(c(O)c1C2=O)C[C@@](O)(C(=O)CO)C[C@@H]3O[C@H]1C[C@H]2[C@H](O[C@@H]3[C@@H](OC(C)C)OCCN32)[C@H](C)O1 [Compound 6c]
9.38

We now examine a further compound.
Kindly note the recorded pIC50 for COc1cccc2c1C(=O)c1c(O)c3c(c(O)c1C2=O)C[C@@](O)(C(=O)CO)C[C@@H]3O[C@H]1C[C@H]2[C@H](O[C@@H]3[C@@H](OCc4ccc(N=[N+]=[N-])cc4)OCCN32)[C@H](C)O1 [Compound 6e] , which is 9.10
